Tested on: C2C12 cells
assay_text: C2C12 cell proliferation assay (CCK-8, OD at 450 nm)
Assay type: cell-based
condition_details: sample 0.4 μg/ml, treatment time 12 h, OD 450 nm
Ends that are not written are not given here.

- substance: "LLYVIR"
  OD value, Average value: 0.50
- substance: "TNYEEIEKVLL"
  OD value, Average value: 0.56
- substance: "EGSLLLPH"
  OD value, Average value: 0.53
- substance: "NTNYEEIEKVL"
  OD value, Average value: 0.557

----------
Tested on: C2C12 cells
assay_text: C2C12 cell proliferation assay (CCK-8, OD at 450 nm)
Format: cell-based
condition_details: sample 0.4 μg/ml, treatment time 24 h, OD 450 nm
Ends that are not written are not given here.

- substance: "NTNYEEIEKVL"
  OD value, Average value: 1.42
- substance: "EGSLLLPH"
  OD value, Average value: 1.26
- substance: "LLYVIR"
  OD value, Average value: 1.34
- substance: "TNYEEIEKVLL"
  OD value, Average value: 1.33
